Across several publications, the following IC50 results were reported for Coagulation factor XI (Homo sapiens, UniProt P03951).
Binary call on IC50 with cut-off 60 µM: strictly below means True, and equality or higher means False.

{"molecule.smiles": "CC[C@@H](C)[C@@H](NC1CCCCC1)C(=O)N1C[C@](O)(CC)C[C@H]1C(=O)NCc1ccc2c(N)nccc2c1", "measured.target": "Coagulation factor XI (Homo sapiens, UniProt P03951)", "group.label": "True"}
{"molecule.smiles": "O=c1c2ccccc2nc(-c2cccc(OS(=O)(=O)O)c2)n1Cc1ccc(Cn2c(-c3cccc(OS(=O)(=O)O)c3)nc3ccccc3c2=O)cc1", "measured.target": "Coagulation factor XI (Homo sapiens, UniProt P03951)", "group.label": "False"}
{"molecule.smiles": "COC(=O)Nc1ccc(-c2[nH]c(CNC(=O)/C=C/c3cc(Cl)ccc3-n3cnnn3)nc2Cl)cc1", "measured.target": "Coagulation factor XI (Homo sapiens, UniProt P03951)", "group.label": "True"}
{"molecule.smiles": "CCCCN1CCN(C(=O)C[C@H](NC(=O)/C=C/c2cc(Cl)ccc2-n2cnnn2)C(=O)Nc2ccc(C(=O)O)cc2)CC1", "measured.target": "Coagulation factor XI (Homo sapiens, UniProt P03951)", "group.label": "True"}
{"molecule.smiles": "CC(C)[C@H](NC(=O)N[C@H]1C[C@H]2C[C@@H]([C@@H]1C)C2(C)C)C(=O)N[C@@H](CCCN=C(N)N)C(=O)c1nccs1", "measured.target": "Coagulation factor XI (Homo sapiens, UniProt P03951)", "group.label": "True"}
{"molecule.smiles": "CC(C)C[C@@H](NC1CCCCC1)C(=O)N1CCCC[C@H]1C(=O)NCc1ccc2c(N)nccc2c1", "measured.target": "Coagulation factor XI (Homo sapiens, UniProt P03951)", "group.label": "True"}

# input Lab note: IC50 threshold 60 µM. Does this compound come in strictly under it? "CC(C)C[C@@H](NC1CCCCC1)C(=O)N1CCC[C@H]1C(=O)NCc1ccc2c(N)nccc2c1"
# output True

# input Lab note: IC50 threshold 60 µM. Does this compound come in strictly under it? "C=CCc1[nH]c2ccc(Cl)cc2c1CNC(=O)[C@H](CC(C)C)NC(=O)[C@H](NC(=O)[C@@H](CC=C)c1ccccc1)C1CCCCC1"
# output False

# input Lab note: IC50 threshold 60 µM. Does this compound come in strictly under it? "NCc1cc(-c2cccc(C(=O)Nc3ccccc3CC(=O)O)c2)ccc1Cl"
# output True

# input Lab note: IC50 threshold 60 µM. Does this compound come in strictly under it? "CC(C)C[C@H](NC(=O)NCc1ccc(Cl)c(Cl)c1)C(=O)N[C@H](C(=O)N[C@@H](CCCNC(=N)N)C(=O)c1nccs1)C1CCCCC1"
# output True

# input Lab note: IC50 threshold 60 µM. Does this compound come in strictly under it? "O=c1[nH]c(-c2ccc(OS(=O)(=O)O)cc2)nc2ccccc12"
# output False
